Tested on: NOMO1
Test: cell viability relative to DMSO control; higher = less cytotoxic
Details: RPMI 5 mM glucose + 10% FBS; 48 h; 0.00234 µM
measureName: cell viability (%)
Just the number please, in %, no unit attached.

Examples from the recorded data:
COc1cc([C@@H]2c3cc4c(cc3[C@H](O)[C@H]3COC(=O)[C@@H]23)OCO4)cc(OC)c1OC : 87.9
OC1=CC2=C(C=C1)C(=O)\C(=C(O2)\C3=CC(=C(O)C=C3)O)O : 91.3
CCN(CC)CCOc1ccc(Cc2ccccc2)cc1 : 92.2
O=C(CS(=O)Cc1ccco1)NC/C=C\COc1cc(CN2CCCCC2)ccn1 (stereo unspecified) : 87.5
COc1cc2ncn(-c3cc(OCc4ccccc4[S+](C)(=O)[O-])c(C#N)s3)c2cc1OC : 89.9

Next molecule, cell viability to be filled in.
Query: # query: cell viability of entry N[C@H]2CN(CC12CC1)c3c(F)cc4c(c3Cl)[N@@](C=C(C4=O)C(=O)O)C5C[C@H]5F (stereo partly specified)
Result: 92
